Target: HLA-B*40:01
Experiment: IEDB peptide-MHC binding, purified MHC/direct/fluorescence; filed as Kd, often an IC50 or EC50 that approximates it; bounds were set here for any values at or beyond the usual limits of such assays
Conditions: source organism: Yellow fever virus
Measurement label: Kd

Ask: Please report the recorded Kd for VNRWLFRHL .
Reply: ≥ 20 µM

----------
Target: HLA-A*26:01
Experiment: IEDB peptide-MHC binding, purified MHC/competitive/fluorescence; filed as Kd, often an IC50 or EC50 that approximates it; bounds were set here for any values at or beyond the usual limits of such assays
Settings: source organism: Bacillus thuringiensis serovar israelensis ATCC 35646
Measurement label: pKd
Give bare numbers, as −log10 of the molar value.

Ask: Form: Entry = NTIRNAASF | System = HLA-A*26:01 | pKd = ____
Reply: 7.13

----------
Assignment: determine reported Kd for the given sequences.
Target: HLA-B*45:06
Assay: IEDB peptide-MHC binding, purified MHC/competitive/fluorescence; filed as Kd, often an IC50 or EC50 that approximates it; bounds were set here for any values at or beyond the usual limits of such assays
Settings: source organism: Homo sapiens

{"columns": ["Sequence string", "Kd"],
 "data": [
  ["YYWPRPRRY", "≥ 5 µM"]
]}

We now examine a further sequence.
Ask: Form: Entry = VMAPRTLIL | System = HLA-B*45:06 | Kd = ____
Reply: ≥ 5 µM

----------
Target: HLA-B*15:02
Assay: IEDB peptide-MHC binding, purified MHC/direct/fluorescence; filed as Kd, often an IC50 or EC50 that approximates it; bounds were set here for any values at or beyond the usual limits of such assays
Settings: source organism: Hepatovirus A
Measurement label: pKd
One number for each entry, as −log10 of the molar value.

Ask: Form: Entry = YMYAVSGAL | System = HLA-B*15:02 | pKd = ____
Reply: 8.30

----------
Molecular target: HLA-B*46:01
Experiment: IEDB peptide-MHC binding, purified MHC/direct/fluorescence; filed as Kd, often an IC50 or EC50 that approximates it; bounds were set here for any values at or beyond the usual limits of such assays
Settings: source organism: Dengue virus
Measurement label: Kd

Ask: Please report the recorded Kd for SQHNYRPGY .
Reply: ≥ 20 µM

----------
Biological target: HLA-A*01:01
Assay: IEDB peptide-MHC binding, purified MHC/competitive/radioactivity; filed as Kd, often an IC50 or EC50 that approximates it; bounds were set here for any values at or beyond the usual limits of such assays
Details: source organism: Mammarenavirus brazilense
Measurement label: Kd (µM)
One number for each entry, in µM.

{"columns": ["Sequence string", "Kd, µM"],
 "data": [
  ["IPDVIELAY", 5.51]
]}

We now examine a further sequence.
Ask: Form: Entry = EALRGFLLY | System = HLA-A*01:01 | Kd = ____
Reply: 3.73

----------
Molecular target: HLA-A*03:01
Assay: IEDB peptide-MHC binding, purified MHC/direct/fluorescence; filed as Kd, often an IC50 or EC50 that approximates it; bounds were set here for any values at or beyond the usual limits of such assays
Settings: source organism: West Nile virus
Measurement label: Kd

{"columns": ["Sequence string", "Kd"],
 "data": [
  ["YCPGTTVTL", "≥ 20 µM"]
]}

We now examine a further sequence.
Ask: Form: Entry = KIRNRIERL | System = HLA-A*03:01 | Kd = ____
Reply: ≥ 20 µM
